Cited source: patent US6169181A

Target: HIV-1 protease (Human immunodeficiency virus type 1 group M subtype B, UniProt P04585)
Test: biochemical
Settings: Table II; enzyme HIV-1; DOSE 0.123 (unit not given)
Decide using PROTEASE % INHIB.: a value greater than or equal to 70% is MET, a smaller one is NOT MET.

• CCC[C@@]1(CCc2ccc(F)cc2)CC(O)=C([C@@H](c2cccc(NS(=O)(=O)c3cn(C)cn3)c2)C(C)(C)C)C(=O)O1 (single isomer, unassigned) = MET
• CCC[C@@]1(CCc2ccc(F)cc2)CC(O)=C([C@@H](c2cccc(NS(=O)(=O)c3ccc(N)cn3)c2)C(C)(C)C)C(=O)O1 (single isomer, unassigned) [Example 317] = MET
• Cn1cnc(S(=O)(=O)Nc2cccc(C(C3=C(O)CC(CCc4ccccc4)(CCC(F)(F)F)OC3=O)C(C)(C)C)c2)c1 (single isomer, unassigned) [Example 270] = MET
• CCC[C@@]1(CCc2ccc(F)cc2)CC(O)=C([C@@H](c2cccc(NS(=O)(=O)c3ccc(N)cn3)c2)C(C)(C)C)C(=O)O1 (single isomer, unassigned) [Example 316] = MET
• N#Cc1ccc(S(=O)(=O)Nc2cccc(CC3=C(O)CC(CCc4ccccc4)(CCc4ccccc4)OC3=O)c2)nc1 = NOT MET
• CCC(C1=C(O)C2CCCCCC2OC1=O)c1cccc(NS(=O)(=O)c2ccc(C#N)cn2)c1 (stereo not drawn) = NOT MET
• CCCC1(CCc2ccc(F)cc2)CC(O)=C(C(CC)c2cccc(NS(=O)(=O)c3ccc(C(N)=O)cn3)c2)C(=O)O1 (stereo not drawn) = MET
• CCC[C@]1(CCc2ccc(F)cc2)CC(O)=C([C@H](c2cccc(NS(=O)(=O)c3ccc(C#N)cn3)c2)C(C)(C)C)C(=O)O1 (single isomer, unassigned) = NOT MET
• CC(C)(C)C(C1=C(O)C2CCCCCCC2OC1=O)c1cccc(NS(=O)(=O)c2ccc(C#N)cn2)c1 (stereo not drawn) = MET
• CCCC1(CCc2ccccc2)CC(O)=C(C(c2cccc(NS(=O)(=O)c3ccc(C#N)cn3)c2)C2CC2)C(=O)O1 (stereo not drawn) = MET
• CC(C)CC1(CC(C)C)CC(O)=C(C(c2cccc(NS(=O)(=O)c3cn(C)cn3)c2)C(C)(C)C)C(=O)O1 (racemic) = MET
• CCCC1(CCc2ccccc2)CC(O)=C(C(c2cccc(NS(=O)(=O)c3ccccn3)c2)C(C)(C)C)C(=O)O1 (single isomer, unassigned) = MET
• CCC(C1=C(O)CC(CCc2ccc(F)cc2)(CCc2ccc(F)cc2)OC1=O)c1cccc(NS(=O)(=O)c2ccc(C(N)=O)cn2)c1 (stereo not drawn) = NOT MET
• CC(C)(C)C(C1=C(O)CC(CCc2ccccc2)(CCc2ccccc2)OC1=O)c1cccc(NS(=O)(=O)c2ccc(N)cn2)c1 (single isomer, unassigned) [Example 356] = NOT MET
• CCC[C@@]1(CCc2ccc(F)cc2)CC(O)=C([C@H](c2cccc(NS(=O)(=O)c3ccc(C#N)cn3)c2)C(C)(C)C)C(=O)O1 (single isomer, unassigned) = NOT MET
• CCC[C@@]1(CCc2ccccc2)CC(O)=C([C@H](CC)c2cccc(NS(=O)(=O)c3ccc(N)cn3)c2)C(=O)O1 (single isomer, unassigned) [Example 314] = MET
• Cn1cnc(S(=O)(=O)Nc2cccc(C(C3=C(O)CC(CCc4ccccc4)(CCc4ccccc4)OC3=O)C(C)(C)C)c2)c1 (stereo not drawn) = NOT MET
• CCCC1(CCc2ccc(F)cc2)CC(O)=C(C(c2cccc(NS(=O)(=O)c3ccc(C#N)cc3)c2)C(C)(C)C)C(=O)O1 (stereo not drawn) = NOT MET
• CCCC1(CCC)CC(O)=C(C(c2cccc(NS(=O)(=O)c3ccc(C(F)(F)F)cn3)c2)C(C)(C)C)C(=O)O1 (single isomer, unassigned) [Example 285] = MET
• CCCC1(CCC)CC(O)=C(C(CC)c2cccc(NS(=O)(=O)c3ccc(C(N)=O)cn3)c2)C(=O)O1 (stereo not drawn) = MET
• CCCC1(CCC)CC(O)=C(C(c2cccc(NS(=O)(=O)c3ccc(C(F)(F)F)cn3)c2)C(C)(C)C)C(=O)O1 (single isomer, unassigned) [Example 286] = NOT MET
• CCC(C1=C(O)C2CCCCC2OC1=O)c1cccc(NS(=O)(=O)c2ccc(C#N)cn2)c1 (stereo not drawn) = MET
• CCCC1(CCc2ccccc2)CC(O)=C(C(c2cccc(NS(=O)(=O)c3ccc(C(F)(F)F)cn3)c2)C(C)(C)C)C(=O)O1 (stereo not drawn) = NOT MET
• CCC(C1=C(O)CC(CC(C)C)(CC(C)C)OC1=O)c1cccc(NS(=O)(=O)c2ccc(C#N)cn2)c1 (racemic) = MET
